Measured values drawn from patent US10457707B2 for this set.

- Tested on: Streptococcus pneumoniae, R6
*1 amine or outer side, *2 acyl side, *3 side chain or, on linkers, in order; H or OH if unused. Where a SMILES comes first, the peptide text is derived from it. Bridges are numbered along the chain shown (N, C = ends). [ ]: non-standard residue; d: D form. The star is where a group is joined. Phe(3,5-F2) = N[C@@H](Cc1cc(F)cc(F)c1)C(=O)O; NH(4-OCF3-phenyl) = FC(F)(F)Oc1ccc(N*)cc1; Morpholine(3S-CO) = O=C(O)[C@@H]1COCCN1; Pro(4S-Me) = C[C@@H]1CN[C@H](C(=O)O)C1; Pro(4R-Me) = C[C@H]1CN[C@H](C(=O)O)C1; Hyp = O=C(O)[C@@H]1C[C@@H](O)CN1; NH(4-Et-phenyl) = CCc1ccc(N*)cc1; NMeT = CN[C@H](C(=O)O)[C@@H](C)O; aThr = C[C@H](O)[C@H](N)C(=O)O; Pip = O=C(O)[C@@H]1CCCCN1; X1 = N#Cc1cc(N*)ccc1F; CO = O=C([*:1])[*:2]
Endpoint Label: MIC (µM)
Numbers only, in µM.

Would you please look over these solved cases?
{"columns": ["Molecule", "Assay Target", "Endpoint Label", "Observed Result"],
 "data": [
  ["CCc1ccc(NC(=O)N[C@@H](Cc2cc(F)cc(F)c2)C(=O)N[C@@H]2C(=O)N3C[C@H](O)C[C@H]3C(=O)N3CCCC[C@H]3C(=O)N[C@@H](C)C(=O)N3C[C@H](C)C[C@H]3C(=O)O[C@H]2C)cc1 [Compound 211] ({NH(4-Et-phenyl)-CO}-[Phe(3,5-F2)][aThr][Hyp][Pip]A[Pro(4R-Me)]; ester 2-C)", "Streptococcus pneumoniae, R6", "MIC", 0.005],
  ["C[C@@H]1C[C@H]2C(=O)O[C@@H](C)[C@H](NC(=O)[C@H](Cc3cc(F)cc(F)c3)NC(=O)Nc3ccc(F)c(C#N)c3)C(=O)N3C[C@H](O)C[C@H]3C(=O)N3CCOC[C@H]3C(=O)N[C@@H](C)C(=O)N2C1 [Compound 326] ({X1-CO}-[Phe(3,5-F2)][aThr][Hyp][Morpholine(3S-CO)]A[Pro(4R-Me)]; ester 2-C)", "Streptococcus pneumoniae, R6", "MIC", 0.625]
]}

## Input MIC for C[C@H]1C[C@H]2C(=O)O[C@@H](C)[C@H](NC(=O)[C@H](Cc3cc(F)cc(F)c3)NC(=O)Nc3ccc(OC(F)(F)F)cc3)C(=O)N3CCC[C@H]3C(=O)N(C)[C@@H]([C@@H](C)O)C(=O)N[C@@H](C)C(=O)N2C1 [Compound 36] ({NH(4-OCF3-phenyl)-CO}-[Phe(3,5-F2)][aThr]P[NMeT]A[Pro(4S-Me)]; ester 2-C) ?
## Output 0.024

----------
Exercise: state measured pIC50 for each of the molecules provided.
- Assay Target: Sa-ClpP (Staphylococcus aureus)
- Construct: made in house; host or cells: E. coli BL21(DE3)
- Sequence (Q2G036 whole entry): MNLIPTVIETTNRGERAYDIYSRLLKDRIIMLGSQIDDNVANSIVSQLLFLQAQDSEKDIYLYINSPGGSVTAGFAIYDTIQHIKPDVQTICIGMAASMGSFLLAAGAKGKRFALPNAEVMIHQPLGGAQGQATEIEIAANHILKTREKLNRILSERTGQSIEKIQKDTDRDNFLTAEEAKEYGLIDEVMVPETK
- Test Details: ADEP displacement fluorescence polarization assay (FP probe ADEP 2591)
- Type: binding
*1 amine or outer side, *2 acyl side, *3 side chain or, on linkers, in order; H or OH if unused. Where a SMILES comes first, the peptide text is derived from it. Bridges are numbered along the chain shown (N, C = ends). [ ]: non-standard residue; d: D form. The star is where a group is joined. Phe(3,5-F2) = N[C@@H](Cc1cc(F)cc(F)c1)C(=O)O; Pro(4R-Me) = C[C@H]1CN[C@H](C(=O)O)C1; aThr = C[C@H](O)[C@H](N)C(=O)O; Pip = O=C(O)[C@@H]1CCCCN1; X4 = c1cc2c(cc1N*)CCC2; X1 = N#Cc1cc(N*)ccc1F; CO = O=C([*:1])[*:2]
Give bare numbers, as −log10 of the molar value.

{"columns": ["Molecule", "Endpoint Label", "Observed Result"],
 "data": [
  ["C[C@@H]1C[C@H]2C(=O)O[C@@H](C)[C@H](NC(=O)[C@H](Cc3cc(F)cc(F)c3)NC(=O)Nc3ccc(F)c(C#N)c3)C(=O)N3CCC[C@H]3C(=O)N3CCCC[C@H]3C(=O)N[C@@H](C)C(=O)N2C1 [Compound 324] ({X1-CO}-[Phe(3,5-F2)][aThr]P[Pip]A[Pro(4R-Me)]; ester 2-C)", "pIC50", 5.10]
]}

Now examine the next entry.
## Input pIC50 for C[C@@H]1C[C@H]2C(=O)O[C@@H](C)[C@H](NC(=O)[C@H](Cc3cc(F)cc(F)c3)NC(=O)Nc3ccc4c(c3)CCC4)C(=O)N3CCC[C@H]3C(=O)N3CCCC[C@H]3C(=O)N[C@@H](C)C(=O)N2C1 [Compound 302] ({X4-CO}-[Phe(3,5-F2)][aThr]P[Pip]A[Pro(4R-Me)]; ester 2-C) ?
## Output 5.02

----------
- Tested on: Bacillus subtilis, ATCC 23857
- Test Details: Minimal inhibitory concentration assay (microbroth dilution)
- Format: cell-based
- Condition Notes: Bacillus subtilis, ATCC23857, read-out: Minimal Inhibitory Concentrations B. subtilis ATCC 23857
*1 amine or outer side, *2 acyl side, *3 side chain or, on linkers, in order; H or OH if unused. Where a SMILES comes first, the peptide text is derived from it. Bridges are numbered along the chain shown (N, C = ends). [ ]: non-standard residue; d: D form. The star is where a group is joined. ξ: configuration not given here. Phe(3,5-F2) = N[C@@H](Cc1cc(F)cc(F)c1)C(=O)O; NH(1-Me-indolin-5-yl) = CN1CCc2cc(N*)ccc21; Morpholine(3S-CO) = O=C(O)[C@@H]1COCCN1; Pro(4R-Me) = C[C@H]1CN[C@H](C(=O)O)C1; NH(3,4-Me2-phenyl) = Cc1ccc(N*)cc1C; X9 = CC1(C)CC(C(=O)[*:2])N([*:1])C1; ξPro(4R-Me) = C[C@H]1CNC(C(=O)O)C1; Hyp = O=C(O)[C@@H]1C[C@@H](O)CN1; NH(4-Me-phenyl) = Cc1ccc(N*)cc1; ξNMeThr = CNC(C(=O)O)[C@@H](C)O; aThr = C[C@H](O)[C@H](N)C(=O)O; Pip = O=C(O)[C@@H]1CCCCN1; X3 = Cn1ccc2ccc(N*)cc21; ξPip = O=C(O)C1CCCCN1; CO = O=C([*:1])[*:2]; ξP = O=C(O)C1CCCN1
Exercise: state measured log10 MIC for each of the molecules provided.
Quick note: numbers are log10 of MIC, with µM as the unit.

{"columns": ["Molecule", "log10 MIC"],
 "data": [
  ["C[C@@H]1C[C@H]2C(=O)OC[C@H](NC(=O)[C@H](Cc3ccccc3)NC(=O)Nc3ccc4c(c3)CCN4C)C(=O)N3CCC[C@H]3C(=O)N3CCCC[C@H]3C(=O)N[C@@H](C)C(=O)N2C1", 0.10],
  ["Cc1ccc(NC(=O)N[C@@H](Cc2cc(F)cc(F)c2)C(=O)N[C@@H]2C(=O)N3CCCC3C(=O)N3CCCCC3C(=O)N[C@@H](C)C(=O)N3C[C@H](C)CC3C(=O)O[C@H]2C)cc1 (stereo partly drawn) [Compound 39] ({NH(4-Me-phenyl)-CO}-[Phe(3,5-F2)][aThr][ξP][ξPip]A[ξPro(4R-Me)]; ester 2-C)", -1.70],
  ["C[C@@H]1C[C@H]2C(=O)OC[C@H](NC(=O)[C@H](Cc3ccccc3)NC(=O)Nc3cccc(Cl)c3)C(=O)N3CCC[C@H]3C(=O)N3CCCC[C@H]3C(=O)N[C@@H](C)C(=O)N2C1", 0.19],
  ["C[C@@H]1C[C@H]2C(=O)O[C@@H](C)[C@H](NC(=O)[C@H](Cc3cc(F)cc(F)c3)NC(=O)Nc3ccc4ccn(C)c4c3)C(=O)N3CCC[C@H]3C(=O)N3CCCC[C@H]3C(=O)N[C@@H](C)C(=O)N2C1 [Compound 306] ({X3-CO}-[Phe(3,5-F2)][aThr]P[Pip]A[Pro(4R-Me)]; ester 2-C)", -1.11]
]}

// input: 4 molecules below; output: log10 MIC for each
1. C[C@@H]1C[C@H]2C(=O)O[C@@H](C)[C@H](NC(=O)[C@H](Cc3cc(F)cc(F)c3)NC(=O)Nc3ccc4c(c3)CCN4C)C(=O)N3CCC[C@H]3C(=O)N(C)C([C@@H](C)O)C(=O)N[C@@H](C)C(=O)N2C1 (stereo partly drawn) [Compound 311] ({NH(1-Me-indolin-5-yl)-CO}-[Phe(3,5-F2)][aThr]P[ξNMeThr]A[Pro(4R-Me)]; ester 2-C)
2. Cc1ccc(NC(=O)N[C@@H](Cc2cc(F)cc(F)c2)C(=O)N[C@H]2COC(=O)C3CC(C)(C)CN3C(=O)[C@H](C)NC(=O)C3CCCCN3C(=O)C3CCCN3C2=O)cc1 (some centres unmarked) [Compound 49] ({NH(4-Me-phenyl)-CO}-[Phe(3,5-F2)]S[ξP][ξPip]A[X9]; ester 2-C)
3. Cc1ccc(NC(=O)N[C@@H](Cc2cc(F)cc(F)c2)C(=O)N[C@@H]2C(=O)N3C[C@H](O)C[C@H]3C(=O)N3CCOC[C@H]3C(=O)N[C@@H](C)C(=O)N3C[C@H](C)C[C@H]3C(=O)O[C@H]2C)cc1C [Compound 215] ({NH(3,4-Me2-phenyl)-CO}-[Phe(3,5-F2)][aThr][Hyp][Morpholine(3S-CO)]A[Pro(4R-Me)]; ester 2-C)
4. C[C@@H]1C[C@H]2C(=O)OC[C@H](NC(=O)[C@H](Cc3ccccc3)NC(=O)Nc3ccccc3)C(=O)N3CCC[C@H]3C(=O)N3CCCC[C@H]3C(=O)N[C@@H](C)C(=O)N2C1

## Output
1: -0.50; 2: -0.40; 3: 0.49; 4: 0.19
